Data credit: patent US20220249679A1

Target Of Assay: T1, Human CD138 His (human, UniProt P18827 23-254)
T1 construct: also called hCD138
T1 sequence: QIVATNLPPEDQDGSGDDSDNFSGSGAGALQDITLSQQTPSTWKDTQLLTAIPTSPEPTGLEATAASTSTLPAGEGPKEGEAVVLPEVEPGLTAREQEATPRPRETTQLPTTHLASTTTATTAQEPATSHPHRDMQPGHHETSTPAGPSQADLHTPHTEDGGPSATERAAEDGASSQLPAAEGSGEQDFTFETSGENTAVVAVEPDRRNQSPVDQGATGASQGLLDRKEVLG
Experiment: SPR (BioRad Proteon), CD138 His immobilized, bivalent analyte fit
Measured Endpoint: log10(kon) (log10 of the value in M⁻¹ s⁻¹)
Quick note: numbers are log10 of kon, with M⁻¹ s⁻¹ as the unit.

For orientation, consider the following solved cases.
INSERT INTO measurements (binder, reported) VALUES
  ('F12P7G11 (antibody, V domains shown, Murine IgG purified from hybridoma supernatant) VH: QVQLQQSGAELARPGASVKLSCKASGYTFSSHWMQWVKQRPGQGLEWIGAIYPGDGDTRFTQKFKGKATLTADKSSNTAYMQLSSLASEDSAVYYCARGIYYDRSRAMDYWGQGTSVTVSS VL: QIVLSQSPAILSASPGEKVTMTCRASSSVNYMHWYQQKPGSSPKHWIYATSYLASGVPARFSGSGSGTSYSLTISRVEAEDAATYYCQQWSSDPLTFGAGTKLELKR', 6.58),
  ('F13P18D8 (antibody, V domains shown, Murine IgG purified from hybridoma supernatant) VH: EVQLLESGGGLVQPEGSLKLSCAASGFAFNTYAMNWVRQAPGKGLEWLARIRSKSNNYATYYADSVKDRFTISRDDSQGMLYLQMNNLKTEDTAMYYCVTDYYYVYFDVWGAGTTVTVSS VL: NIVMTQSPKSMSMSVGERVTLSCKASENVGTYVSWYQQKSDQSPKLLIYGASNRYTGVPDRFTGSGSATDFTLTITSVQSEDLADYHCGQSSRYPLTFGAGTKLELKR', 5.44),
  ('F13P30A7 (antibody, V domains shown, Murine IgG purified from hybridoma supernatant) VH: EVQLVESGGGLVQPKGSLKLSCAASGFTFNTYAMNWVRQAPGKGLEWIARIRSKSNNYATYYADSVKDRFTISRDDSQSLLYLQMNNLKTEDTAIFYCVTDYGYVYFDAWGAGTTVTVSS VL: NIIMTQSPKSMAMSVGERVTLSCKASENVGNYVSWYQQKPEQSPKLLIYGASYRYTGVPDRFTGSGSGTDFTLTISSVQAEDLADYHCGQSSRYPLTFGAGTKLELKR', 5.38),
  ('F13P14D3 (antibody, V domains shown, Murine IgG purified from hybridoma supernatant) VH: EVQLVESGGGLVQPKGSLKLSCATSGFTFNTYAMNWVRQAPGKGLEWVARIRSKSNNYATYYVDSVKDRFTISRDDSQSTVHLQMNNLKTEDTAIYYCVTDYGHVYFDVWGAGTTVTVSS VL: NIVMTQSPKSMSMSVGQRVTLSCKASENVGSYVSWYQQKPEQSPKLLIYGASNRNTGVPDRFTGSGSATDFTLTISSVQAEDLADYHCGQSSRYPLTFGGGTKLELKR', 5.03);

Quick one: log10(kon) of F11AP11E5 (antibody, V domains shown, Murine IgG purified from hybridoma supernatant) VH: QVQLQQSGAELVKPGASVKLSCKASGYTFTNYYMYWVKQRPGQGLEWIGEINPGNGGTNFNEKFKNKATLTVDKSSSTAYMQLSSLTSEDSAVYYCTTRFAYWGQGTLVIVSA VL: DVVMTQTPLSLSVTIGQPASISCKSGQSLLYSNGKTYLTWLQQRPGQAPKLLMYQVSKLDPGIPDRFSGSGSETDFTLKISRVEAEDLGVYYCLQNTYYPHTFGAGTKLELKR ? 5.11
